Target: c-MET (Homo sapiens)
Sequence (P08581 25-1390): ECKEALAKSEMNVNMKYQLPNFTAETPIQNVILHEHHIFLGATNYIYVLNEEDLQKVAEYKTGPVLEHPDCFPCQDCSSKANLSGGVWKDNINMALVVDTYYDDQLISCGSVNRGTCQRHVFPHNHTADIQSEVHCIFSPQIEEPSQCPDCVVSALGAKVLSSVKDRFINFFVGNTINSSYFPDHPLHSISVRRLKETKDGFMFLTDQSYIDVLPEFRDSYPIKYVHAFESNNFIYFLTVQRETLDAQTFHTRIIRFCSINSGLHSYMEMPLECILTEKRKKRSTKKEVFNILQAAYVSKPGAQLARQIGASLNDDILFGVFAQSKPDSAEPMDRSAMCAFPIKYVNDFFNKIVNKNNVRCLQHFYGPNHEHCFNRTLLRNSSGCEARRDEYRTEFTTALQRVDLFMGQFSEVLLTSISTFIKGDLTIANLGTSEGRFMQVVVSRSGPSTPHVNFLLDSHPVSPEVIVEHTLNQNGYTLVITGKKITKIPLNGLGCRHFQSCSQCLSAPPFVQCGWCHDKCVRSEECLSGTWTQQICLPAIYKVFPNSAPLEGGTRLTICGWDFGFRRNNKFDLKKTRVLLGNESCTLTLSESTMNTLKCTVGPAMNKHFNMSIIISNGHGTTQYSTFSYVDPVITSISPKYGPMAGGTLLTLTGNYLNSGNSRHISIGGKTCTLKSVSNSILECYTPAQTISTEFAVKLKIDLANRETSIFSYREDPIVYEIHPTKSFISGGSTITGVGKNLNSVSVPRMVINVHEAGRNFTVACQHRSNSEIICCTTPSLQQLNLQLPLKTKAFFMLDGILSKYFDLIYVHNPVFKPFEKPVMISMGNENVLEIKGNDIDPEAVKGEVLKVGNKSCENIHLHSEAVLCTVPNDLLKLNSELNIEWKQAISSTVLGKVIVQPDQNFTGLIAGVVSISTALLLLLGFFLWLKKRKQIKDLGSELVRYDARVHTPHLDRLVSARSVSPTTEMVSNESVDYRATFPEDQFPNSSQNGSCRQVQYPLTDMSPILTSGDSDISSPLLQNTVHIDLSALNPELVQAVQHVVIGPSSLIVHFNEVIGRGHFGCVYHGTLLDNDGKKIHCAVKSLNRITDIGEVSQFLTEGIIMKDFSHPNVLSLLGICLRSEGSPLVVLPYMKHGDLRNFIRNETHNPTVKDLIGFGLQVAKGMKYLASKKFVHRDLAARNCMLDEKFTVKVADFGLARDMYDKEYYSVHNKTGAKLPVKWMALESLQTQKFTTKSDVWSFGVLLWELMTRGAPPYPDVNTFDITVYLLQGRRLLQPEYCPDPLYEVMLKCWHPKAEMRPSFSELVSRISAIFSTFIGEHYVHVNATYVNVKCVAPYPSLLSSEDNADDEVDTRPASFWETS
Experiment: Enzymatic assay (ADP-Glo kinase reaction), c-MET
Format: biochemical
Conditions: 10 μM ATP, 60 min, ADP-GLO luminescence
Item-by-item account of IC50

Use the examples below as a reference point.
Cc1nc(Cn2cc(C(=O)Nc3ccc(Oc4ccnc(N)c4C#CCC4CCN(C)CC4)c(F)c3)c(=O)n(-c3ccc(F)cc3)c2=O)cs1 ... < 10 nM
CC(C)n1cc(C(=O)Nc2ccc(Oc3ccnc(N)c3C#CC(=O)N3CCNCC3)c(F)c2)c(=O)n(-c2ccc(F)cc2)c1=O ... < 10 nM

Now for the compound whose IC50 we want.
[Q] Value wanted: IC50 (c-MET (Homo sapiens)) of entry CN1CCC(CC#Cc2c(Oc3ccc(NC(=O)c4nn(C)c(=O)n(-c5ccc(F)cc5)c4=O)cc3F)ccnc2N)CC1
[A] < 1000 nM
